# experimental.system: T1, Recombinant human CD4 (R&D Systems, Cat. 10327-CD) (human, UniProt P01730 26-390, limits assumed)
# T1 construct: Bought protein; also called huCD4
# assay.summary: BLI (Octet Red384), purified antibody on anti-mouse Fc sensors, human CD4 100/50/25 nM, global 1:1 fit;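 also: antibodies loaded at 10 µg/mL, curves fitted across association and dissociation phases, with an unrelated mouse-derived antibody serving as internal reference control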
Sorting guide: entries reporting Kd beneath 7 nM go in the Met pile, the rest go in the Not met pile.

- binder: "75110_08A13A (antibody, V domains shown, Tested as antibody purified from AlivaMab Mouse Kappa hybridoma (human V regions, kappa light chain, mouse Fc captured by anti-mouse Fc sensors)) VH: EVQLVESGGGLVQPGGSLRLSCAASGFIFSSYWMSWVRQAPGKGLEWVANIKQDGSEKYYMDSVKGRFTISRDNAKNSLYLQMNSLRAEDTAVYYCARDNSYYYYGMDVWGQGTTVTVSS VL: AIQMTQSPSSLSASVGDRVTITCRASQGIRDDLGWYQQKPGKAPKLLIFAASSLQSGVPSSFSGSGSGTDFTLTISSLQPEDFATYYCLHHYNYPYTFGQGTKLEIK"
  class.assignment: "Met"
- binder: "75110_07B16A (antibody, V domains shown, Tested as antibody purified from AlivaMab Mouse Kappa hybridoma (human V regions, kappa light chain, mouse Fc captured by anti-mouse Fc sensors)) VH: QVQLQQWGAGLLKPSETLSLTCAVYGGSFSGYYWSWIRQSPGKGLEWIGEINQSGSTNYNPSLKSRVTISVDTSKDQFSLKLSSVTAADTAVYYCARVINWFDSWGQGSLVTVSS VL: DIQMTQSPSSVSASVGDRVTITCRASQGISSWLAWYQQKPGKAPKLLIYDASSFQSGVPSRFSGSGSGTDFTLTISSLQTDDFATYYCQQANSFPYTFGQGTKLEIK"
  class.assignment: "Met"
- binder: "75110_10K21A (antibody, V domains shown, Tested as antibody purified from AlivaMab Mouse Kappa hybridoma (human V regions, kappa light chain, mouse Fc captured by anti-mouse Fc sensors)) VH: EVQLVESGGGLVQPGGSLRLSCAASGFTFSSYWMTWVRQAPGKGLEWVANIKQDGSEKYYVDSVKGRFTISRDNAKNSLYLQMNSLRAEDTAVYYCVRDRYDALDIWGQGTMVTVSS VL: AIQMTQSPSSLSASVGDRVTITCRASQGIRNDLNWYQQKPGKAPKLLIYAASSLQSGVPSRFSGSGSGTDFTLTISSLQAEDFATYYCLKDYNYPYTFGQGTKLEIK"
  class.assignment: "Met"
- binder: "75110_08F20A (antibody, V domains shown, Tested as antibody purified from AlivaMab Mouse Kappa hybridoma (human V regions, kappa light chain, mouse Fc captured by anti-mouse Fc sensors)) VH: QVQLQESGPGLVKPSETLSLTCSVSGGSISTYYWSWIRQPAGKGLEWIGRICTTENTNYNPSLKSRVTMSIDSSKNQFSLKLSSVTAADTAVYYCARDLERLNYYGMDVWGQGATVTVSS VL: DIQMTQSPSSLSASVGDRVTITCQASQDISKYLNWYQQKPGIAPKLLIYDASNLETGVPSRFSGSGSGTDFTFTISSLQPEDFATYYCQQYDSLPITFGQGTRLEIK"
  class.assignment: "Not met"
- binder: "75110_06C16A (antibody, V domains shown, Tested as antibody purified from AlivaMab Mouse Kappa hybridoma (human V regions, kappa light chain, mouse Fc captured by anti-mouse Fc sensors)) VH: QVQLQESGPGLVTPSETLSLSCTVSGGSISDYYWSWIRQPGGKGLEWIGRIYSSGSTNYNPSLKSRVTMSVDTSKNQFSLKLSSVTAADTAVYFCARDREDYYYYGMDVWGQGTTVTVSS VL: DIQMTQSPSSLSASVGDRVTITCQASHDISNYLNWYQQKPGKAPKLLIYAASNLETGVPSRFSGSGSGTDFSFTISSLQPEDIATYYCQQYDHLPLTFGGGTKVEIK"
  class.assignment: "Not met"

Data origin: patent US20220112288A1
